The reported numbers originate from paper PMC8876215.

- targetOfAssay: ChoKα1 (choline kinase α1) (Homo sapiens)
- Construct: truncated form of ChoKα1 (Δ75–457), N-terminal 6x His-tag
- Sequence (P35790 75-457): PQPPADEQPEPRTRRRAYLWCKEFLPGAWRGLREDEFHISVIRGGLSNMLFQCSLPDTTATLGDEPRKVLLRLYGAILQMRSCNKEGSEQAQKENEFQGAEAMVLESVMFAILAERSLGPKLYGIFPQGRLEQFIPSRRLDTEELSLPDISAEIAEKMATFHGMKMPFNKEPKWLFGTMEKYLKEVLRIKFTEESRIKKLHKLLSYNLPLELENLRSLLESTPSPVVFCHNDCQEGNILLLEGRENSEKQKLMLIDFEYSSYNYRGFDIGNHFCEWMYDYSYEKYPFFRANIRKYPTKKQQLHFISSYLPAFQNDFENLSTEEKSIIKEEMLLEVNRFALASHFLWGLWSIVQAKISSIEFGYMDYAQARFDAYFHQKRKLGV
- testDescription: radiometric assay: [methyl-14C]choline to phosphocholine by purified recombinant enzyme, TLC and scintillation counting
pIC50: −log10 of the molar value.

molecule | pIC50
Clc1ccc2c(N3CCCC3)cc[n+](Cc3ccc(SCCSc4ccc(C[n+]5ccc(N6CCCC6)c6ccc(Cl)cc65)cc4)cc3)c2c1 | 6.18
